Tested on: BDF1 mice, P388 leukemia ip, median survival T/C
TEST METHOD NOTES: NCI In Vivo Anticancer Drug Screen. Data for tumor model P388 Leukemia (intraperitoneal) in B6D2F1 (BDF1) mice
ASSAY CONDITIONS: endpoint: median survival time; dose: 400.0 mg/kg/injection; schedule: Q04DX003 (ip); vehicle: saline; higher = longer survival
Toxic doses and inconclusive results are not listed.
I'd be grateful if you could share measured T/C for these entries.

get_value(item= "CC(=O)CC(=O)NCCNCCNC(=O)CC(C)=O" , readout=T/C) returns 100 % of control

CC1CCCC(C)(CO)O1 (stereo not drawn) yielded T/C of 105 % of control

The recorded T/C for "C#CCOC(=O)NCC" is 104 % of control

Sure, the documented T/C for "O=S(O)OS(=O)O" is 96 % of control

The molecule listed as "O=C(CCCCC(=O)N/N=C\c1ccccn1)N/N=C\c1ccccn1" shows T/C equal to 109 % of control

Given item "Cc1cc(N)no1" , the value recorded as its T/C is 100 % of control

Per the records, this molecule ( "O=C1CSC(=S)N1c1ccco1" ) has T/C equal to 100 % of control

Form field T/C, entry "C1=CCONC1" : 93 % of control

T/C in this record for CC(C)(C)OC(=O)NC(Cc1cncn1Cc1ccccc1)C(=O)NC(Cc1c[nH]c2ccccc12)C(=O)OCc1ccccc1 (stereo not drawn) : 100 % of control

Per the records, this molecule ( "CSc1nc2nc(Cl)c(Cl)nc2[nH]1" ) has T/C equal to 103 % of control

GET /value?item= NNc1nc2c(N)ncnc2n1C1OC(CO)C(O)C1O (stereo not drawn) &field=T/C returns 116 % of control

GET /value?item= COc1ccc(C(Br)C(Br)C(=O)c2ccc3c(c2)OCO3)cc1OC (stereo not drawn) &field=T/C returns 90 % of control

For record "O=C(O)CCCC1CCC(=O)CC1" the listed T/C is 109 % of control

Sample "Nc1ccn[nH]1" ; T/C observed: 122 % of control

Notebook: "C[N+](C)(C)CCO" , T/C read as 110 % of control

Record summary for "CC(=O)Nc1nc(C)c(CCC#N)c(=O)[nH]1" : reported T/C = 86 % of control

Notebook: COC(=O)C1(C)CCC(c2ccc(OC)cc2)C(CC(=O)O)C1=O (stereo not drawn) , T/C read as 96 % of control

T/C in this record for CCOC1NC(C)(C)CO1 (stereo not drawn) : 95 % of control

Measured T/C, COc1cc(C=NC(CO)C(=O)O)ccc1O.COc1cc(C=NC(CO)C(=O)O)ccc1O.[Fe] (stereo not drawn) : 95 % of control

Looking up "O=C(Cn1ccc(=O)[nH]c1=O)N1CCC2(CC1)SSC1(CCN(C(=O)Cn3ccc(=O)[nH]c3=O)CC1)S2" , I see its T/C listed as 90 % of control

response.value for "COc1cc2cc(-c3cc(OC)c(OC)c(OC)c3)c3c(c2cc1OC)CNC3=O" (field: T/C) = 100 % of control

Given item "Cc1cccc(=O)n1CCC#N" , the value recorded as its T/C is 100 % of control

# T/C (molecule: CC(=O)OCC(C)OC(C)=O (stereo not drawn) ) is 96 % of control
